Where these numbers come from: patent US7019000B1

# ASSAY_SYSTEM: HPV-16-E6 (recombinant GST-E6 protein) (Human papillomavirus type 16, UniProt P03126)
# Construct: The full length HPV16 E6 gene was amplified via polymerase chain reaction and cloned in the vector pGeX4T2; made in house; host or cells: E. coli strain AB1899
# Sequence (P03126 whole entry): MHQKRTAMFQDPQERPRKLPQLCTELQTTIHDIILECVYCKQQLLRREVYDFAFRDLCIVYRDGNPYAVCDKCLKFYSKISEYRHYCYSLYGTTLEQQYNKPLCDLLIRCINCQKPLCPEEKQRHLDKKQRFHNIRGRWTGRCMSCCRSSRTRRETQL
# TEST_METHOD_NOTES: biochemical
# Type: biochemical
# RUN_PARAMETERS: read-out: TSQ % (% values of Zinc release)
Could you label it label 1 if measured activation at 10 µM is 60% or higher, and label 0 otherwise?

Solved entries:
INSERT INTO results (compound, cat) VALUES
  ('CC1CN1SSN1CC1C (stereo not shown)', 'label 0'),
  ('C1CN1SSN1CC1', 'label 1'),
  ('O=CN(SSN(C=O)C1CCCCC1)C1CCCCC1', 'label 0');

Ask | Given the entry S=C(SSC(=S)N1CCOCC1)N1CCOCC1 , answer whether its activation at 10 µM meets or surpasses 60%.
Reply | label 1

Ask | Given the entry CN1CCCN(C(=S)SSC(=S)N2CCCN(C)CC2)CC1 , answer whether its activation at 10 µM meets or surpasses 60%.
Reply | label 1

Ask | Given the entry C1CN(SSN2CCOCC2)CCO1 , answer whether its activation at 10 µM meets or surpasses 60%.
Reply | label 1

Ask | Given the entry O=C1c2ccccc2C(=O)N1SSN1C(=O)c2ccccc2C1=O , answer whether its activation at 10 µM meets or surpasses 60%.
Reply | label 1
